B1: library; numbered along this chain (parent)
chain: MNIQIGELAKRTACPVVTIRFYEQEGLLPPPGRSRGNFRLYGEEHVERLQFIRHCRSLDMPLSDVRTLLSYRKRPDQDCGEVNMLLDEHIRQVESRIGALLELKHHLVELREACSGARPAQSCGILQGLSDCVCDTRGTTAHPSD

Variants of: B1
assay_notes: sfGFP reporter fluorescence (15 h) (µM FITC); higher = stronger transcriptional activation
stated_conditions: library round: Round 1; ligand: 30 µM Zn
property: sfGFP reporter fluorescence
Lab note: write the figure by itself, no unit.

Memo: L129I D131C , reported sfGFP reporter fluorescence: 0.07

Memo: E109H D131C , reported sfGFP reporter fluorescence: 0.159

Memo: `L100I` , reported sfGFP reporter fluorescence: 0.216

Memo: N83R L107H , reported sfGFP reporter fluorescence: 0.0662

Memo: D131T D135Y , reported sfGFP reporter fluorescence: 0.801

Memo: N83S R111C , reported sfGFP reporter fluorescence: 0.0665

Memo: N83T E109L P143R , reported sfGFP reporter fluorescence: 0.183

Memo: P61N R111L , reported sfGFP reporter fluorescence: 0.265

Memo: M60L D64T L107C , reported sfGFP reporter fluorescence: 2.46

Memo: N83F P143K , reported sfGFP reporter fluorescence: 0.0627

Memo: I90L D135A , reported sfGFP reporter fluorescence: 0.207

Memo: G128I D131E , reported sfGFP reporter fluorescence: 1.34

Memo: D64T D135R , reported sfGFP reporter fluorescence: 1.76

Memo: P61N C134M , reported sfGFP reporter fluorescence: 1.53

Memo: G128I D131S , reported sfGFP reporter fluorescence: 1.43

Memo: D64K I90C K104V , reported sfGFP reporter fluorescence: 0.959

Memo: N83S D131A D135A , reported sfGFP reporter fluorescence: 0.275

Memo: N83T R111D , reported sfGFP reporter fluorescence: 0.068

Memo: P30A K104V , reported sfGFP reporter fluorescence: 0.583

Memo: P61N K104V L107E , reported sfGFP reporter fluorescence: 0.068

Memo: M60L D64K K104V L107C G128I , reported sfGFP reporter fluorescence: 2.61

Memo: V46F K104V , reported sfGFP reporter fluorescence: 0.475
